tested_on: UGT1A9 (Homo sapiens, UniProt O60656)
Sequence (O60656 26-530): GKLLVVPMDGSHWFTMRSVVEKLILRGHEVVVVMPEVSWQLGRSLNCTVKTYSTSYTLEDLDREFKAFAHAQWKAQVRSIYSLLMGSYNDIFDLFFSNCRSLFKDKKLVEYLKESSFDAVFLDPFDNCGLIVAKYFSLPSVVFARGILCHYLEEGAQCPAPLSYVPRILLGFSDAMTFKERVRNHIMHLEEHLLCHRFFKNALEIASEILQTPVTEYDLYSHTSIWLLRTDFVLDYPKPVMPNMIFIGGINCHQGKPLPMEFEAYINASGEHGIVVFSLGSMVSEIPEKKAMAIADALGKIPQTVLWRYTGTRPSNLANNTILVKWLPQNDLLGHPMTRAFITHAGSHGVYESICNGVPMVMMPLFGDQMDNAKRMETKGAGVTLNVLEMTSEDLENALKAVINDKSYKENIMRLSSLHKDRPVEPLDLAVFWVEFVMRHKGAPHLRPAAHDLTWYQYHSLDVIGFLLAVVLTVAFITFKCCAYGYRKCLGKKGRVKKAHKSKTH
experiment_notes: in vitro
settings: recombinant enzyme, pH 7.4
property_measured: half-life at 1 µM (min)
Respond with the bare value in min.

> print(dat)
                                   compound  observed.value
1  O=c1cc(C(F)(F)F)c2ccc(O)cc2o1 [7-OH4trifluoromethylcoumarin, 7-hydroxy-4-trifluoromethylcoumarin]            3.04
2  CCCCCc1cc(O)c(C/C=C(\C)CCC=C(C)C)c(O)c1 [CBG, cannabigerol]            1.92

GET /value?item= CCCCCc1cc(O)c(C/C=C(\C)CCC=C(C)C)c(OC)c1 [Compound 1] &field=half-life at 1 µM returns 14

====

experiment_notes: Quantification of CBG and CBG glucuronide in rat plasma (LC-MS/MS)
Assay type: in vivo, Sprague-Dawley rat
settings: both sexes, Sprague-Dawley, rat, plasma, oral, 100 mg/kg, CBG 100 mg/kg oral gavage once daily; 1 hr post Rx; read-out: CBG concentration in rat plasma (Day 21)
property_measured: concentration at 1 h (ng/mL)
Please respond with the number in ng/mL and leave the unit unwritten.

concentration at 1 h for CCCCCc1cc(O)c(C/C=C(\C)CCC=C(C)C)c(O)c1 is 226

====

tested_on: T1, UGT1A4 (Homo sapiens, UniProt P22310)
T1 construct: purchased BD Biosciences
T1 sequence (P22310 29-534): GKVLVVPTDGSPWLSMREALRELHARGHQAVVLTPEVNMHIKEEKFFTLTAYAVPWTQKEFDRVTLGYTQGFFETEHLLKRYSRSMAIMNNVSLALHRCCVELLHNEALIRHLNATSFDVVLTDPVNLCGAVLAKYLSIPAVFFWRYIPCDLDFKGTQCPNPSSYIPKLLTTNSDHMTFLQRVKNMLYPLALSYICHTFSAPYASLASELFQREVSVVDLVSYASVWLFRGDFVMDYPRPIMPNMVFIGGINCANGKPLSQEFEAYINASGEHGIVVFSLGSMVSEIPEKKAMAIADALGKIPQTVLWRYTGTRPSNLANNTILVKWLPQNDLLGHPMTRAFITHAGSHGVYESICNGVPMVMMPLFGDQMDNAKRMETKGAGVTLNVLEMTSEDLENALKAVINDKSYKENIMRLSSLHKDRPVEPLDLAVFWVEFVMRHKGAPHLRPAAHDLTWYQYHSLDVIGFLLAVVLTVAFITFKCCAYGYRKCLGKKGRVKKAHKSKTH
experiment_notes: UGT reaction phenotyping, recombinant Supersomes
Assay type: in vitro ADME
settings: human, recombinant UGT1A4 Supersomes, pH 7.4, Test Conc. 1 μM, read-out: Recombinant UGT Half Life T1/2
property_measured: half-life at 1 µM

Field: example entries. Status: answers known.
> print(dat)
                            chemical.smiles  observed.value
1   CCCCCc1cc(O)c(C/C=C(\C)CCC=C(C)C)c(O)c1           > 4 h
2  CCCCCc1cc(O)c(C/C=C(\C)CCC=C(C)C)c(OC)c1           > 4 h

Next item in the queue.
In plain terms, CN1CCN(CCCN2c3ccccc3Sc3ccc(C(F)(F)F)cc32)CC1 has a documented half-life at 1 µM of 16.4 h

====

experiment_notes: Hepatocyte stability and metabolite profiling
Assay type: in vitro ADME
settings: cryopreserved hepatocytes in suspension; Mouse cryopreserved hepatocytes
property_measured: half-life (min)
Numbers only here, please. The scale is min.

So for CCCCCc1cc(O)c(C/C=C(\C)CCC=C(C)C)c(O)c1 , the logged half-life turned out to be 42.2

====

experiment_notes: Hepatocyte stability and metabolite profiling
Format: in vitro ADME, minipig
settings: cryopreserved hepatocytes in suspension; Minipig cryopreserved hepatocytes
property_measured: half-life (min)
# unit: min | format: bare number

Briefly, half-life measured for CCCCCc1cc(O)c(C/C=C(\C)CCC=C(C)C)c(O)c1 : 42.7

====

experiment_notes: Quantification of CBG and CBG glucuronide in rat plasma (LC-MS/MS)
Format: in vivo, Sprague-Dawley rat
settings: both sexes, Sprague-Dawley, rat, plasma, oral, 30 mg/kg, CBG 30 mg/kg oral gavage once; 24 hr post Rx; read-out: CBG concentration in rat plasma (Day 1)
property_measured: concentration at 24 h (ng/mL)
Lab book: enter the figure in ng/mL, no units written.

The recorded concentration at 24 h for CCCCCc1cc(O)c(C/C=C(\C)CCC=C(C)C)c(O)c1 is 2.75

====

experiment_notes: Hepatocyte stability and metabolite profiling
Format: in vitro ADME, rat
settings: cryopreserved hepatocytes in suspension; Rat cryopreserved hepatocytes
property_measured: hepatocyte CLint

So, CCCCCc1cc(O)c(C/C=C(\C)CCC=C(C)C)c(O)c1 ? Its hepatocyte CLint was 28.3 µL/min/1e6 cells

====

experiment_notes: Quantification of CBG and CBG glucuronide in rat plasma (LC-MS/MS)
Assay type: in vivo, Sprague-Dawley rat
settings: both sexes, Sprague-Dawley, rat, plasma, oral, 100 mg/kg, CBG 100 mg/kg oral gavage once daily; 15 min post Rx; read-out: CBG concentration in rat plasma (Day 21)
property_measured: concentration at 15 min (ng/mL)
Kindly provide the numeric value in ng/mL only, without the unit symbol.

Note to self: concentration at 15 min recorded for CCCCCc1cc(O)c(C/C=C(\C)CCC=C(C)C)c(O)c1 was 41.6

====

experiment_notes: Quantification of CBG in rat brain tissue (LC-MS/MS)
Format: in vivo, Sprague-Dawley rat
settings: both sexes, Sprague-Dawley, rat, brain, oral, 30 mg/kg, CBG 30 mg/kg oral gavage once daily; 24 hrs post Rx; read-out: CBG concentration in rat brain tissue (Day 21)
property_measured: concentration at 24 h (ng/g)
Number only, in ng/g; omit the unit.

Recorded result, CCCCCc1cc(O)c(C/C=C(\C)CCC=C(C)C)c(O)c1 , concentration at 24 h: 43.8

====

experiment_notes: Hepatocyte stability and metabolite profiling
Assay type: in vitro ADME, dog
settings: cryopreserved hepatocytes in suspension; Dog cryopreserved hepatocytes
property_measured: hepatocyte CLint (µL/min/1e6 cells)
# value in µL/min/1e6 cells; strip the unit string

Sure, the documented hepatocyte CLint for CCCCCc1cc(O)c(C/C=C(\C)CCC=C(C)C)c(O)c1 is 26.3

====

experiment_notes: Quantification of CBG in rat brain tissue (LC-MS/MS)
Type: in vivo, Sprague-Dawley rat
settings: male, Sprague-Dawley, rat, brain, oral, 100 mg/kg, CBG 100 mg/kg once daily; 24 hrs post Rx; male rats; read-out: CBG concentration in rat brain tissue (Day 21), Average
property_measured: concentration at 24 h (ng/g)
Just the number in ng/g, nothing appended.

concentration at 24 h for CCCCCc1cc(O)c(C/C=C(\C)CCC=C(C)C)c(O)c1 [CBG, cannabigerol] is 540

====

experiment_notes: Quantification of CBG and CBG glucuronide in rat plasma (LC-MS/MS)
Assay type: in vivo, Sprague-Dawley rat
settings: both sexes, Sprague-Dawley, rat, plasma, oral, 100 mg/kg, CBG 100 mg/kg oral gavage once daily; 30 min post Rx; read-out: CBG concentration in rat plasma (Day 21)
property_measured: concentration at 30 min (ng/mL)
Entry rule: numbers only, all in ng/mL.

Documented concentration at 30 min of CCCCCc1cc(O)c(C/C=C(\C)CCC=C(C)C)c(O)c1 : 178

====

tested_on: UGT1A6 (Homo sapiens)
Sequence (P19224 27-532): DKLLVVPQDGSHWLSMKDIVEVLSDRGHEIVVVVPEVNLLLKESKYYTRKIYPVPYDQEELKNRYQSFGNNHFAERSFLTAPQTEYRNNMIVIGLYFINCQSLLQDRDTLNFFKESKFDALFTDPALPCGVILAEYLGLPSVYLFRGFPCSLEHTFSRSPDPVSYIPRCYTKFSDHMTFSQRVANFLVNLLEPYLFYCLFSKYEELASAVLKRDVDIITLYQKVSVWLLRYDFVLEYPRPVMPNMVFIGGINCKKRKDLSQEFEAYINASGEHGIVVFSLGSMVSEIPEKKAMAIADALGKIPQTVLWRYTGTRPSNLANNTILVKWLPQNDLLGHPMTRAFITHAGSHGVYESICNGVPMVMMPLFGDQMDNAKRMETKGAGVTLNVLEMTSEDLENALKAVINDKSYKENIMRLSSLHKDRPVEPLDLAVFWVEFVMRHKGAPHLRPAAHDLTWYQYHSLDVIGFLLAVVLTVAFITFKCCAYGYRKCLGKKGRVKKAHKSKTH
experiment_notes: in vitro
settings: recombinant enzyme, pH 7.4
property_measured: microsomal CLint at 1 µM (µL/min/mg)
Express the result in µL/min/mg but write the number alone.

> print(dat)
                                   compound              tested.on  observed.value
1  O=c1cc(C(F)(F)F)c2ccc(O)cc2o1 [7-OH4trifluoromethylcoumarin, 7-hydroxy-4-trifluoromethylcoumarin]  UGT1A6 (Homo sapiens)             216

Kindly review the next compound as well.
Reported UGT1A6 (Homo sapiens) microsomal CLint at 1 µM for item CCCCCc1cc(O)c(C/C=C(\C)CCC=C(C)C)c(O)c1 [CBG, cannabigerol] was 14.6
